system: Leishmania tropica; experiment: Antileishmanial activity against Leishmania tropica MHOM/A7/1974/SAF-K27 incubated for 48 hrs by XTT method; assay type: functional, organism-based; conditions: MHOM/A7/1974/SAF-K27, 48 h
Recorded log10 of IC50 for the following compounds
Annotation: log10 of IC50, µg/mL basis.

mol smiles | log10 of IC50
CN1CCN(c2ncc3nc(NC(=O)c4ccc(Cl)c([N+](=O)[O-])c4)sc3n2)CC1 | 1.73
CN(C)c1ncc2nc(NC(=O)c3ccc(Cl)c([N+](=O)[O-])c3)sc2n1 | 0.82
CCN(CC)c1ncc2nc(NC(=O)c3ccc(Cl)cc3Cl)sc2n1 | 2.10

Request: log10 of IC50, test system Leishmania tropica, entry O=C(Nc1nc2cnc(N3CCOCC3)nc2s1)c1ccc(Cl)c(Cl)c1 1.62

Now this one: CC(=O)N1CCN(c2ncc3nc(NC(=O)c4ccc(Cl)c(Cl)c4)sc3n2)CC1 2.17

Now this one: O=C(Nc1nc2cnc(N3CCCCC3)nc2s1)c1ccc(Cl)cc1 2.09

Now this one: O=C(Nc1nc2cnc(N3CCCCC3)nc2s1)c1ccc(Cl)cc1Cl 1.21

Now this one: CCN(CC)c1ncc2nc(NC(=O)c3ccc(Cl)cc3)sc2n1 2.27

* * *

Recorded selectivity ratio for the following molecules
tested on: DHFR (human) versus PTR1 (Leishmania major); experiment: Selectivity index, ratio of IC50 for human DHFR to IC50 for Leishmania major PTR1; type: toxicity; details: human DHFR enzyme and Leishmania major PTR1 enzyme, read-out: Ratio IC50
Answer field: number only, no words.

mol smiles | value measured
CCOC(=O)N1CCN(c2ncc3nc(NC(=O)c4ccc(Cl)c(Cl)c4)sc3n2)CC1 | 42.6

With those in mind, consider the next molecule.
What value of selectivity ratio has been reported for the following molecule? CN1CCN(c2ncc3nc(NC(=O)c4ccc(Cl)cc4)sc3n2)CC1 9.54

* * *

Recorded log10 IC50 (µg/mL) for the following molecules
tested on: RAW264.7; assay: Cytotoxicity against mouse RAW264.7 cells by alamar blue method; assay type: toxicity, cell-based; conditions: raw264.7
Answer field: number only, no words.

Past entries and their recorded results:
mol smiles | system tested | log10 IC50 (µg/mL)
CN1CCN(c2ncc3nc(NC(=O)c4ccc(Cl)cc4)sc3n2)CC1 | RAW264.7 | 1.15
CCN(CC)c1ncc2nc(NC(=O)c3ccc(Cl)c([N+](=O)[O-])c3)sc2n1 | RAW264.7 | 0.65
O=C(Nc1nc2cnc(N3CCCC3)nc2s1)c1ccc(Cl)c([N+](=O)[O-])c1 | RAW264.7 | 0.95
CCOC(=O)N1CCN(c2ncc3nc(NC(=O)c4ccc(Cl)c(Cl)c4)sc3n2)CC1 | RAW264.7 | 1.18
CN(C)c1ncc2nc(NC(=O)c3ccc(Cl)c([N+](=O)[O-])c3)sc2n1 | RAW264.7 | 0.94

With those in mind, consider the next molecule.
What value of log10 IC50 (µg/mL) has been reported for the following molecule? CN1CCN(c2ncc3nc(NC(=O)c4ccc(Cl)c(Cl)c4)sc3n2)CC1 1.22

* * *

Recorded pIC50 for the following compounds
Target: UniProt Q01782
Sequence (Q01782 whole entry): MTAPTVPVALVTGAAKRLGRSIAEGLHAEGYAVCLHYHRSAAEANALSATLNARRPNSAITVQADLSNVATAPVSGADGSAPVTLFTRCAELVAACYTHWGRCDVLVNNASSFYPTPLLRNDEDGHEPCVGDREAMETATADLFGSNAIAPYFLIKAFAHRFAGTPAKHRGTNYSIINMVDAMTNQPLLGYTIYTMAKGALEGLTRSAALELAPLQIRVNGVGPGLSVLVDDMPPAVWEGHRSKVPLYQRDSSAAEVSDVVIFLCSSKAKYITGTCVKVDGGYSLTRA
Experiment: Inhibition of recombinant Leishmania major PTR1 expressed in Escherichia coli BL21 using folic acid as substrate in presence of NADPH
// scale note: pIC50 = -log10(conc_M); give the bare number

Past entries and their recorded results:
mol smiles | pIC50
O=C(Nc1nc2cnc(N3CCCC3)nc2s1)c1ccc(Cl)c([N+](=O)[O-])c1 | 4.83
CCOC(=O)N1CCN(c2ncc3nc(NC(=O)c4ccc(Cl)c(Cl)c4)sc3n2)CC1 | 3.91
CN1CCN(c2ncc3nc(NC(=O)c4ccc(Cl)c(Cl)c4)sc3n2)CC1 | 4.67
CN1CCN(c2ncc3nc(NC(=O)c4ccc(Cl)cc4)sc3n2)CC1 | 4.55
CN(C)c1ncc2nc(NC(=O)c3ccc(Cl)c([N+](=O)[O-])c3)sc2n1 | 3.17

With those in mind, consider the next compound.
What value of pIC50 has been reported for the following compound? CCN(CC)c1ncc2nc(NC(=O)c3ccc(Cl)c([N+](=O)[O-])c3)sc2n1 3.59

* * *

Recorded IC50 for the following compounds
tested on: Leishmania tropica; experiment: Antileishmanial activity against Leishmania tropica MHOM/A7/1974/SAF-K27 incubated for 48 hrs by XTT method; assay type: functional, organism-based; settings: MHOM/A7/1974/SAF-K27, 48 h

mol smiles | IC50
O=C(Nc1nc2cnc(N3CCCCC3)nc2s1)c1ccc(Cl)c([N+](=O)[O-])c1 | 56.7 µg/mL
CC(=O)N1CCN(c2ncc3nc(NC(=O)c4ccc(Cl)cc4)sc3n2)CC1 | > 300 µg/mL
CN1CCN(c2ncc3nc(NC(=O)c4ccc(Cl)c(Cl)c4)sc3n2)CC1 | 7.81 µg/mL

What value of IC50 has been reported for the following compound? O=C(Nc1nc2cnc(N3CCCC3)nc2s1)c1ccc(Cl)c([N+](=O)[O-])c1 10.6 µg/mL

Now this one: CC(=O)N1CCN(c2ncc3nc(NC(=O)c4ccc(Cl)cc4Cl)sc3n2)CC1 75.8 µg/mL

* * *

test: Cytotoxicity against mouse L929 cells by alamar blue method; type: toxicity, cell-based; settings: mouse, L929 cells
Recorded IC50 for the following molecules
Dear colleague, please send the value followed by its unit.

mol smiles | IC50
CN1CCN(c2ncc3nc(NC(=O)c4ccc(Cl)cc4)sc3n2)CC1 | 25.7 mg/L

With those in mind, consider the next molecule.
What value of IC50 has been reported for the following molecule? O=C(Nc1nc2cnc(N3CCCC3)nc2s1)c1ccc(Cl)c([N+](=O)[O-])c1 24.4 mg/L

* * *

test system: Leishmania tropica; test: Antileishmanial activity against Leishmania tropica MHOM/A7/1974/SAF-K27 incubated for 48 hrs by XTT method; type: functional, organism-based; conditions: MHOM/A7/1974/SAF-K27, 48 h
result type: IC50

mol smiles | IC50
CCN(CC)c1ncc2nc(NC(=O)c3ccc(Cl)c([N+](=O)[O-])c3)sc2n1 | 15.6 µg/mL

What value of IC50 has been reported for the following compound? O=C(Nc1nc2cnc(N3CCCCC3)nc2s1)c1ccc(Cl)c(Cl)c1 25.5 µg/mL

Now this one: O=C(Nc1nc2cnc(N3CCCC3)nc2s1)c1ccc(Cl)cc1Cl 52 µg/mL

Now this one: CN(C)c1ncc2nc(NC(=O)c3ccc(Cl)c(Cl)c3)sc2n1 119 µg/mL

Now this one: CCOC(=O)N1CCN(c2ncc3nc(NC(=O)c4ccc(Cl)c(Cl)c4)sc3n2)CC1 0.04 µg/mL

* * *

tested on: L929; assay: Cytotoxicity against mouse L929 cells by alamar blue method; format: toxicity, cell-based; conditions: l929
Recorded log10 IC50 (µg/mL) for the following molecules
Answer field: number only, no words.

Past entries and their recorded results:
mol smiles | result type | value measured
CN1CCN(c2ncc3nc(NC(=O)c4ccc(Cl)cc4)sc3n2)CC1 | log10 IC50 (µg/mL) | 1.41
CCOC(=O)N1CCN(c2ncc3nc(NC(=O)c4ccc(Cl)c(Cl)c4)sc3n2)CC1 | log10 IC50 (µg/mL) | 1.15
CN(C)c1ncc2nc(NC(=O)c3ccc(Cl)c([N+](=O)[O-])c3)sc2n1 | log10 IC50 (µg/mL) | 1.32
CN1CCN(c2ncc3nc(NC(=O)c4ccc(Cl)c(Cl)c4)sc3n2)CC1 | log10 IC50 (µg/mL) | 1.44
CCN(CC)c1ncc2nc(NC(=O)c3ccc(Cl)c([N+](=O)[O-])c3)sc2n1 | log10 IC50 (µg/mL) | 1.28

With those in mind, consider the next molecule.
What value of log10 IC50 (µg/mL) has been reported for the following molecule? O=C(Nc1nc2cnc(N3CCCC3)nc2s1)c1ccc(Cl)c([N+](=O)[O-])c1 1.39

* * *

experiment: Cytotoxicity against mouse RAW264.7 cells by alamar blue method; assay type: toxicity, cell-based; conditions: mouse, RAW264.7 cells
Recorded IC50 for the following compounds

Past entries and their recorded results:
mol smiles | IC50
CN1CCN(c2ncc3nc(NC(=O)c4ccc(Cl)cc4)sc3n2)CC1 | 14.1 µg/mL
CN1CCN(c2ncc3nc(NC(=O)c4ccc(Cl)c(Cl)c4)sc3n2)CC1 | 16.4 µg/mL
CCOC(=O)N1CCN(c2ncc3nc(NC(=O)c4ccc(Cl)c(Cl)c4)sc3n2)CC1 | 15 µg/mL
O=C(Nc1nc2cnc(N3CCCC3)nc2s1)c1ccc(Cl)c([N+](=O)[O-])c1 | 8.98 µg/mL
CN(C)c1ncc2nc(NC(=O)c3ccc(Cl)c([N+](=O)[O-])c3)sc2n1 | 8.75 µg/mL

With those in mind, consider the next compound.
What value of IC50 has been reported for the following compound? CCN(CC)c1ncc2nc(NC(=O)c3ccc(Cl)c([N+](=O)[O-])c3)sc2n1 4.47 µg/mL
